Read-out: Human Leukocyte Antigen - DR isotype (HLADR), HLA-DRA (gene 3122)
Experiment Summary: BSK_BE3C_HLADR: BioMAP Diversity Plus: BE3C Assay for Human Leukocyte Antigen - DR isotype (HLADR) Biomarker Activity (AID 2283032)
Test Context: primary human bronchial epithelial cells; actives raise or lower the signal
The source made the active and inactive calls. The calls were made as follows: active = hit-call score of the fitted dose curve at least 0.9, where 1 is the maximum; inactive = score below 0.9.
Outcome codes: active, inactive

Compound Smiles	Discrete Label
O=C(Nc1ccc2c(O)c(N=Nc3ccc(N=Nc4ccc(S(=O)(=O)O)cc4)cc3)c(S(=O)(=O)O)cc2c1)c1ccccc1	inactive
O=C1OC[C@H](Cc2cccc(O)c2)[C@H]1Cc1cccc(O)c1	inactive
CCCCOC(=O)CCCCCCCC(=O)OCCCC	inactive
CN(C)C(=O)Nc1ccc(Oc2ccc(Cl)cc2)cc1	inactive
CCCCCC(C=O)=Cc1ccccc1	active
Cc1cc(CCC(=O)OCCOCCOCCOC(=O)CCc2cc(C)c(O)c(C(C)(C)C)c2)cc(C(C)(C)C)c1O	inactive

---

Measurement Target: Aryl hydrocarbon receptor (Homo sapiens)
Experiment Summary: ATG_Ahr_CIS: Attagene CIS-FACTORIAL HepG2 Assay for human Aryl Hydrocarbon Receptor (Ahr) (AID 2282930)
Test Context: HepG2 AhR cis-factorial reporter transcription; actives raise or lower the signal
Activity calls are given as the source filed them. The calls were made as follows: active = hit-call score of the fitted dose curve at least 0.9, where 1 is the maximum; inactive = score below 0.9.
Possible outcomes: label 1 = active, label 0 = inactive

Compound	Measurement Target	Discrete Label
CC(CN=Cc1ccccc1O)N=Cc1ccccc1O (configuration not stated)	Aryl hydrocarbon receptor (Homo sapiens)	label 1
O=C1CCCC=CCCCCCCCCCC1	Aryl hydrocarbon receptor (Homo sapiens)	label 0
C/C=C(\C)C(=O)OCCc1ccccc1	Aryl hydrocarbon receptor (Homo sapiens)	label 0
C=Cc1ccncc1	Aryl hydrocarbon receptor (Homo sapiens)	label 0
O=C(CC(=O)c1ccccc1)c1ccccc1	Aryl hydrocarbon receptor (Homo sapiens)	label 1
COc1cc(Cl)c(OC)cc1N	Aryl hydrocarbon receptor (Homo sapiens)	label 1
C=C(C)C(=O)OCC(CC)(COC(=O)C(=C)C)COC(=O)C(=C)C	Aryl hydrocarbon receptor (Homo sapiens)	label 0

---

Read-out: Interleukin-1 alpha (IL1a), IL1A (gene 3552)
Experiment Summary: BSK_KF3CT_IL1a: BioMAP Diversity Plus: KF3CT Assay for Interleukin-1 alpha (IL1a) Biomarker Activity (AID 2283070)
Test Context: primary human keratinocytes with fibroblasts; actives raise or lower the signal
Activity calls are given as the source filed them. Rule for the calls: active = hit-call score of the fitted dose curve at least 0.9, where 1 is the maximum; inactive = score below 0.9.
Outcome codes: active, inactive

Compound	Discrete Label
IC(I)I	inactive
CCN(CC)C(=O)N(CC)CC	inactive
C=C(C)C(=O)OCCOCCOCCOC(=O)C(=C)C	active
Oc1c(Cl)cc(Cl)c(Cl)c1Cc1c(O)c(Cl)cc(Cl)c1Cl	active
C=CC(C)(O)CCC=C(C)C (stereo unspecified)	inactive
O=C(Nc1ccc2c(O)c(N=Nc3ccc(N=Nc4ccc(S(=O)(=O)O)cc4)cc3)c(S(=O)(=O)O)cc2c1)c1ccccc1	inactive

---

Measurement Target: Myc proto-oncogene protein (Homo sapiens)
Experiment Summary: ATG_Myc_CIS: Attagene CIS-FACTORIAL HepG2 Assay for human Myelocytomatosis (Myc) Proto-Oncogene Transcription Factor (AID 2282990)
Test Context: HepG2, Attagene cis-reporter transcription factor activity; actives raise or lower the signal
Activity calls are given as the source filed them. Rule for the calls: active = hit-call score of the fitted dose curve at least 0.9, where 1 is the maximum; inactive = score below 0.9.
Classes used: active, inactive

Compound	Measurement Target	Discrete Label
C[C@H]1C[C@@H](O)CC(C)(C)C1	Myc proto-oncogene protein (Homo sapiens)	inactive
C[C@H]1O[C@@H](O[C@H]2[C@@H](O)C[C@H](O[C@H]3[C@@H](O)C[C@H](O[C@H]4CC[C@@]5(C)[C@H](CC[C@@H]6[C@@H]5C[C@@H](O)[C@]5(C)[C@@H](C7=CC(=O)OC7)CC[C@]65O)C4)O[C@@H]3C)O[C@@H]2C)C[C@H](O)[C@@H]1O	Myc proto-oncogene protein (Homo sapiens)	inactive
O=C(O)CCCCCCCCCCCC(=O)O	Myc proto-oncogene protein (Homo sapiens)	inactive
C=C(C)C1CC=C(C)C(=O)C1 (stereo unspecified)	Myc proto-oncogene protein (Homo sapiens)	inactive
CC=CC=CCOC(=O)C(C)C	Myc proto-oncogene protein (Homo sapiens)	inactive
O=CCc1ccccc1	Myc proto-oncogene protein (Homo sapiens)	inactive
CCCCC1(COC(=O)CCC(=O)O)C(=O)N(c2ccccc2)N(c2ccccc2)C1=O	Myc proto-oncogene protein (Homo sapiens)	inactive
CCCCCCCCCCCC(=O)OC[C@@H](O)[C@H]1OC[C@H](O)[C@H]1O	Myc proto-oncogene protein (Homo sapiens)	inactive
CC(C)C(OC(=O)c1ccccc1)C(C)(C)COC(=O)c1ccccc1 (stereo unspecified)	Myc proto-oncogene protein (Homo sapiens)	inactive
CC1(C)C(=O)N(Cl)C(=O)N1Br	Myc proto-oncogene protein (Homo sapiens)	inactive
C=C(C)C(=O)OCCOCCOCCOCCOC(=O)C(=C)C	Myc proto-oncogene protein (Homo sapiens)	inactive
CC(C)(CO)[C@@H](O)C(=O)NCCC(=O)O	Myc proto-oncogene protein (Homo sapiens)	inactive
CC(C)CC(C)CC(O)CC(C)C (stereo unspecified)	Myc proto-oncogene protein (Homo sapiens)	inactive
O=P(O)(O)O	Myc proto-oncogene protein (Homo sapiens)	inactive
OCC#CCO	Myc proto-oncogene protein (Homo sapiens)	inactive
C=CC(=C)CCCC(C)(C)OC(C)=O	Myc proto-oncogene protein (Homo sapiens)	inactive
CCCCCCCCc1ccc(S(=O)(=O)O)cc1	Myc proto-oncogene protein (Homo sapiens)	inactive
CCOC(=O)CCc1ccccc1	Myc proto-oncogene protein (Homo sapiens)	inactive
O=C(Nc1ccc2c(O)c(N=Nc3ccc(N=Nc4ccc(S(=O)(=O)O)cc4)cc3)c(S(=O)(=O)O)cc2c1)c1ccccc1	Myc proto-oncogene protein (Homo sapiens)	inactive
C/C=C(\C)C(=O)OCCc1ccccc1	Myc proto-oncogene protein (Homo sapiens)	inactive
C=CC(C)(O)CCC=C(C)C (stereo unspecified)	Myc proto-oncogene protein (Homo sapiens)	inactive
C1CCOC1	Myc proto-oncogene protein (Homo sapiens)	inactive
CCOC(=O)COC(=O)c1cc(Oc2ccc(C(F)(F)F)cc2Cl)ccc1[N+](=O)[O-]	Myc proto-oncogene protein (Homo sapiens)	inactive
C=COCCOCCOC=C	Myc proto-oncogene protein (Homo sapiens)	inactive
CC(=O)O[C@H]1C[C@@H]2CC[C@@]1(C)C2(C)C	Myc proto-oncogene protein (Homo sapiens)	inactive
CCCCC1CCC(O)CC1 (stereo unspecified)	Myc proto-oncogene protein (Homo sapiens)	inactive
O=C(O)c1cc(C(=O)O)cc([N+](=O)[O-])c1	Myc proto-oncogene protein (Homo sapiens)	inactive
CCOC(=O)[C@@H](C)Oc1ccc(Oc2nc3ccc(Cl)cc3o2)cc1	Myc proto-oncogene protein (Homo sapiens)	inactive
CCCCCCCCCC(C)C=O (stereo unspecified)	Myc proto-oncogene protein (Homo sapiens)	inactive
CC(C)Nc1nc(N)nc(Cl)n1	Myc proto-oncogene protein (Homo sapiens)	inactive
Nc1ccc2c(O)cc(S(=O)(=O)O)cc2c1	Myc proto-oncogene protein (Homo sapiens)	inactive
CC(C)(N=C=O)c1cccc(C(C)(C)N=C=O)c1	Myc proto-oncogene protein (Homo sapiens)	inactive
CS(C)=O	Myc proto-oncogene protein (Homo sapiens)	inactive
CCO/C=C1\N=C(c2ccccc2)OC1=O	Myc proto-oncogene protein (Homo sapiens)	inactive
Nc1ccc(Cl)c([N+](=O)[O-])c1	Myc proto-oncogene protein (Homo sapiens)	inactive
CCCCCCCCCCCCS(=O)(=O)Cl	Myc proto-oncogene protein (Homo sapiens)	inactive
C=Cc1ccc(C)cc1	Myc proto-oncogene protein (Homo sapiens)	inactive
CC(C)(C)C1=CC(=O)C(C(C)(C)C)=CC1=O	Myc proto-oncogene protein (Homo sapiens)	active
NC(=S)NNC(N)=S	Myc proto-oncogene protein (Homo sapiens)	inactive
COC(=O)c1ccc(OC)cc1	Myc proto-oncogene protein (Homo sapiens)	inactive
COc1cc(CCC(C)=O)ccc1O	Myc proto-oncogene protein (Homo sapiens)	inactive
CCCCCCC(O)CCCCCCCCCCC(=O)O (stereo unspecified)	Myc proto-oncogene protein (Homo sapiens)	inactive
C=CC(=O)OCCC#N	Myc proto-oncogene protein (Homo sapiens)	inactive
CCNCCO	Myc proto-oncogene protein (Homo sapiens)	inactive
c1ccc2cc(Nc3ccc(Nc4ccc5ccccc5c4)cc3)ccc2c1	Myc proto-oncogene protein (Homo sapiens)	inactive
CN(c1nccc(=O)[nH]1)C1CCN(c2nc3ccccc3n2Cc2ccc(F)cc2)CC1	Myc proto-oncogene protein (Homo sapiens)	inactive
C=C[Si]1(C)O[Si](C)(C=C)O[Si](C)(C=C)O[Si](C)(C=C)O1 (stereo unspecified)	Myc proto-oncogene protein (Homo sapiens)	inactive
COS(=O)(=O)O	Myc proto-oncogene protein (Homo sapiens)	inactive
CC(=O)c1ccccn1	Myc proto-oncogene protein (Homo sapiens)	inactive
O=C(O)c1ccc(O)cc1	Myc proto-oncogene protein (Homo sapiens)	inactive
CCCC(C)=O	Myc proto-oncogene protein (Homo sapiens)	inactive
CCOc1ccc(NC(=O)CC(C)=O)cc1	Myc proto-oncogene protein (Homo sapiens)	inactive
C[Si](C)(C)O[Si](C)(C)C	Myc proto-oncogene protein (Homo sapiens)	inactive
CCCOC(=O)c1c(Cl)c(Cl)c(Cl)c(Cl)c1C(=O)OCCC	Myc proto-oncogene protein (Homo sapiens)	active
CCC1CCCCC1	Myc proto-oncogene protein (Homo sapiens)	inactive
CCC1(C)NC(=O)NC1=O (stereo unspecified)	Myc proto-oncogene protein (Homo sapiens)	inactive

Origin of the recorded values: PubChem BioAssay (EPA / NIEHS)
